Sourced from PubChem BioAssay (NCI)

Tested on: NCI-H322M lung
Assay: NCI-60 one-dose screen, 48 h (100 = growth as untreated, 0 = no growth, -100 = all killed)
Conditions: 10 µM unless noted
This is part of a sample that, as a whole, favours compounds with a hit. Of some 83,000 tested, about 20% had one in any assay. Calls of active or inactive are those of the source. How the source made its calls: active means growth percent below 10; inactive means the rest.
readout-label: growth

The cases that follow already have their growth on record.
>>> reported("O=CN1N=C(c2ccc3c(c2)OCO3)CC1c1sc(N(CCCl)CCCl)nc1Cl (stereo not given)")
"75.1% (inactive)"
>>> reported("O=C1NC2(CCNCC2)Nc2ccccc21")
"109% (inactive)"
>>> reported("CCC[CH2][Sn]([CH2]CCC)([CH2]CCC)[O]C(=O)c1ccc(Cl)cc1Cl")
"-86.5% (active)"

Ask: What value of growth has been reported for the following compound? COc1cc(N(CCCl)CCCl)ccc1C=Nc1ccccc1C(=O)O
Result: 95.7% (inactive)

Ask: Entry to check: CC(C)OC(=S)[S-].[Au+].c1ccc([PH+](c2ccccc2)c2ccccc2)cc1
Result: 99.4% (inactive)

Ask: Entry to check: O=C(C(=O)N1CCCC1)c1cn(CCCCCn2cc(C(=O)C(=O)N3CCCC3)c3ccccc32)c2ccccc12
Result: 93.9% (inactive)

Ask: Entry to check: Cc1cc(NC(=O)NCCOc2ccc(N3C(N)=NC(N)=NC3(C)C)cc2Cl)ccc1S(=O)(=O)F
Result: 43.4% (inactive)

Ask: Entry to check: CN=C(NN)NN
Result: 114% (inactive)

Ask: Entry to check: S=P(N1CCCCCC1)(N1CC1)N1CC1
Result: 121% (inactive)

Ask: Entry to check: CC12CCC(=O)C=C1CCC1C2CCC2(C)C(C(=O)COC(=O)Cc3ccc(N(CCCl)CCCl)cc3)CCC12 (stereo not given)
Result: 180% (inactive)
